src = the supplement of paper PMC9694430

Catalogue of thermal shift delta Tm readings, one per entry.
- System: LOC_OS01G21960-cb002
- Measurement Protocol: thermal shift delta Tm vs DMSO control; higher = stronger stabilization (binding);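 also: purified Escherichia coli-expressed rice kinase domain construct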
- Recorded Conditions: 12.5 µM; protein concentration 2 µM
Structures can show the parent of a compound that is named as a salt.
Quick note: give the figure in °C, leave out the unit.

Solved entries (count: 5):
CC(C)(O)CC(=O)NCCn1ccc2ncnc(Nc3ccc(Oc4cccc(C(F)(F)F)c4)c(Cl)c3)c21	1.64
C[C@@H](NC(=O)c1ncnc(N)c1Cl)c1ncc(C(=O)Nc2cc(C(F)(F)F)c(Cl)cn2)s1	0.73
COc1ccc(CCNCc2ccc(OCc3ccc(Cl)nc3)c(OC)c2)cc1OC	0.01
O=C(Nc1cnn2ccc(N3CCC[C@@H]3c3cc(F)ccc3F)nc12)N1CC[C@H](O)C1 [Larotrectinib (LOXO-101) sulfate]	0.24
C=CC(=O)Nc1cccc(Oc2nc(Nc3ccc(N4CCN(C)CC4)cc3)nc3ccsc23)c1	1.61

So, Cc1ccc2nc(NCCN)c3ncc(C)n3c2c1 ? Its thermal shift delta Tm was 0.57

Data point: COc1ccccc1-c1cc(Nc2cccc(CS(N)(=O)=O)c2)ncn1 ; thermal shift delta Tm = 1.02

Just so you know, measured thermal shift delta Tm for COc1cc2ncnc(Oc3cccc(NC(=O)Nc4cc(C(C)(C)C(F)(F)F)on4)c3)c2cc1OC came out at 0.64

Consider CCn1c(N)c(C(=O)NC)c(=O)c2ccc(C#CC(C)(O)COC)nc21 (configuration not stated) . Its measured thermal shift delta Tm is 0.3

Short answer for COc1cc2ncnc(Nc3cccc(Cl)c3)c2cc1OC : thermal shift delta Tm was 0.99

# thermal shift delta Tm (molecule: COc1cc2nccc(Oc3ccc(NC(=O)C4(C(=O)Nc5ccc(F)cc5)CC4)cc3)c2cc1OC ) is 0.93

thermal shift delta Tm reported for this molecule CSc1cccc(Nc2ncc3cc(-c4c(Cl)cccc4Cl)c(=O)n(C)c3n2)c1 : 0.55

The measured thermal shift delta Tm associated with CNC(=O)Nc1ccc(-c2nc(N3CC4CCC(C3)O4)c3cnn(C4CCC5(CC4)OCCO5)c3n2)cc1 reads 1.21

So for c1cn2cc(-c3ccc4cn[nH]c4c3)nc(Nc3ccc(N4CCOCC4)cc3)c2n1 , the logged thermal shift delta Tm turned out to be 1.76

====

- Tested on: LOC_OS01G51400-cb002
- Measurement Protocol: thermal shift delta Tm vs DMSO control; higher = stronger stabilization (binding)
- Recorded Conditions: 12.5 µM; protein concentration 2 µM
Each entry below lists one item and its recorded thermal shift delta Tm value.
Provide the reading as a plain figure in °C.

CC(C)c1ccc2oc3nc(N)c(C(=O)O)cc3c(=O)c2c1	0.2
N#Cc1ccc2ncnc(NCCc3ccccc3)c2c1	0.41
CCc1nc(C(N)=O)c(Nc2ccc(N3CCC(N4CCN(C)CC4)CC3)c(OC)c2)nc1NC1CCOCC1	0.63

Next up:
What the record says about S=C(NCc1ccc2c(c1)OCO2)N1CCN(c2ncnc3c2oc2ccccc23)CC1 : thermal shift delta Tm is 0.31

====

- System: LOC_OS02G54510-cb004
- Measurement Protocol: thermal shift delta Tm vs DMSO control; higher = stronger stabilization (binding)
- Recorded Conditions: 12.5 µM; protein concentration 2 µM
Result Type: thermal shift delta Tm

Please review the following examples before continuing.
N#Cc1ccc2ncnc(NCCc3ccccc3)c2c1 [Senexin A]	0.03 °C
COc1cc2ncnc(Nc3ccc(Cl)cc3F)c2cc1OC	0.95 °C

The reported value for CNc1nc(Nc2cn(C(C)(C)C#N)nc2C)ncc1C(F)(F)F in terms of thermal shift delta Tm is 0.1 °C
